READOUT_LABEL: pIC50
Scale note: pIC50 = -log10(concentration in M).

# value of pIC50, human carboanhydrase II (Homo sapiens), item C=C[C@]12CC[C@]3(C)C[C@H](OC(=O)c4cccc(S(N)(=O)=O)c4)C[C@H]3[C@@H]1CCc1cc(O)ccc12 = 6.31

# pIC50 measured on human carboanhydrase II (Homo sapiens) for item C=C[C@]12CC[C@]3(C)[C@@H](F)[C@H](OC(=O)c4cccc(S(N)(=O)=O)c4)C[C@H]3[C@@H]1CCc1cc(O)ccc12 = 6.14
